Tested on: human Cav3.1 Cav3.2 or Cav3.3 channel
Assay: In vitro assay T channel (FLIPR calcium fluorescence)
Assay type: cell-based
Settings: HEK293 cells expressing human Cav3.1, Cav3.2 or Cav3.3; 10 mM Ca2+-induced fluo-4 fluorescence; determined up to 10 μM; read-out: T channel antagonistic activity IC50
Lab note - cut at 2000 nM for IC50: fulfilled if strictly below, not fulfilled if not.

compound: Cc1cccc(C2=C[C@H]3CC[C@@H]2C[C@]3(CCN(C)CCCc2nc3ccccc3[nH]2)OC(=O)C(C)C)c1 (relative stereo) [Example 5A]
system.name: human Cav3.1 Cav3.2 or Cav3.3 channel
group.label: not fulfilled
//
compound: COc1cc(OC)c2nc(CCCN(C)CC[C@]3(OC(=O)C(C)C)C[C@H]4CC[C@@H]3C=C4c3ccccc3)[nH]c2c1 (relative stereo) [Example 59A]
system.name: human Cav3.1 Cav3.2 or Cav3.3 channel
group.label: fulfilled
//
compound: CN(CCCc1nc2cc(Cl)c(Cl)cc2[nH]1)CC[C@]1(OC(=O)C2CC2)C[C@H]2CC[C@@H]1C=C2c1ccccc1 (relative stereo) [Example 27B]
system.name: human Cav3.1 Cav3.2 or Cav3.3 channel
group.label: not fulfilled
//
compound: COC(=O)c1cccc2[nH]c(CCCN(C)CC[C@]3(O)C[C@H]4CC[C@@H]3C=C4c3ccccc3)nc12 (relative stereo) [Example 19]
system.name: human Cav3.1 Cav3.2 or Cav3.3 channel
group.label: fulfilled
//
compound: COC(=O)c1ccc2[nH]c(CCCN(C)CC[C@]3(O)C[C@H]4CC[C@@H]3C=C4c3ccccc3)nc2c1 (relative stereo) [Example 20]
system.name: human Cav3.1 Cav3.2 or Cav3.3 channel
group.label: not fulfilled

---

Test system: human Cav3.1 Cav3.2 or Cav3.3 channel
Assay: In vitro assay T channel (FLIPR calcium fluorescence)
Type: cell-based
Settings: HEK293 cells expressing human Cav3.1, Cav3.2 or Cav3.3; 10 mM Ca2+-induced fluo-4 fluorescence; determined up to 10 μM; read-out: T channel antagonistic activity IC50
pIC50: −log10 of the molar value.

compound: COCC(C)(COC)C(=O)NCCCN(C)CC[C@]1(O)C[C@H]2CC[C@@H]1C=C2c1ccccc1 (relative stereo)
system.name: human Cav3.1 Cav3.2 or Cav3.3 channel
comparative.sign: <
pIC50: 5.00
//
compound: CC(C)C(=O)O[C@@]1(CCN(C)CCCc2nc3ccccc3[nH]2)C[C@H]2CC[C@@H]1C=C2c1cccnc1 (relative stereo)
system.name: human Cav3.1 Cav3.2 or Cav3.3 channel
comparative.sign: =
pIC50: 5.63
//
compound: COc1ccccc1C1=CC2CCC1CC2(O)CCN(C)CCCc1nc2ccccc2[nH]1 (racemic)
system.name: human Cav3.1 Cav3.2 or Cav3.3 channel
comparative.sign: =
pIC50: 5.48

---

Test system: human Cav3.1 Cav3.2 or Cav3.3 channel
Assay: In vitro assay T channel (FLIPR calcium fluorescence)
Format: cell-based
Settings: HEK293 cells expressing human Cav3.1, Cav3.2 or Cav3.3; 10 mM Ca2+-induced fluo-4 fluorescence; determined up to 10 μM; read-out: T channel antagonistic activity IC50

compound: COc1cccc2[nH]c(CCCN(C)CC[C@]3(O)C[C@H]4CC[C@@H]3C=C4c3ccccc3)nc12 (relative stereo) [Example 26]
IC50: > 10 µM
--
compound: COC(C)(C)C(=O)NCCCN(C)CC[C@]1(OC(=O)C(C)C)C[C@H]2CC[C@@H]1C=C2c1ccccc1 (relative stereo) [Example 44A]
IC50: > 10 µM
--
compound: CN(CCCc1nc2ccccc2[nH]1)CC[C@]1(O)C[C@H]2CC[C@@H]1C=C2c1ncco1 (racemic) [Example 25]
IC50: > 10 µM
